test: Prodrug stability in rat plasma in vitro; assay type: in vitro ADME; settings: 2.0 μM, 37° C.
testReadout: % of Prodrug Remaining after 60 min (%)
Numbers only; they are read as %.

Some entries whose results are on file:
* CC(C)CC(=O)OCOC(=O)NC[C@H](CC(=O)[O-])c1ccc(Cl)cc1.[Na+] [(59)] | 2
* CCCC(=O)OC(OC(=O)NC[C@H](CC(=O)[O-])c1ccc(Cl)cc1)C1CCCCC1.[Na+] (stereo partly drawn) [(85)] | 82
* CC(C)C(=O)OCOC(=O)NC[C@H](CC(=O)[O-])c1ccc(Cl)cc1.[Na+] [(18)] | 39

For CC(=O)OC(C)OC(=O)NC[C@H](CC(=O)[O-])c1ccc(Cl)cc1.[Na+] (stereo partly drawn) [(30)] , what is its reported % of Prodrug Remaining after 60 min?
58

Here is the next molecule: CC(C)C(=O)OC(OC(=O)NC[C@H](CC(=O)[O-])c1ccc(Cl)cc1)C(C)C.[Na+] (stereo partly drawn) [(25)]
5

Here is the next molecule: O=C([O-])C[C@@H](CNC(=O)OCOC(=O)CCc1ccccc1)c1ccc(Cl)cc1.[Na+] [(62)]
5

###

Each entry below carries its reported % of Baclofen Released after 60 min.
assay: Prodrug stability in human plasma in vitro; format: in vitro ADME; details: 2.0 μM, 37° C.
Numbers only; they are read as %.

Some entries whose results are on file:
- CCCC(=O)O[C@H](OC(=O)NC[C@H](CC(=O)[O-])c1ccc(Cl)cc1)C(C)C.[Na+] [(90)]: 2
- CC(OC(=O)NC[C@H](CC(=O)[O-])c1ccc(Cl)cc1)OC(=O)c1ccccc1.[Na+] (some centres unmarked) [(40)]: 2
- CC(C)C(=O)O[C@@H](OC(=O)NC[C@H](CC(=O)O)c1ccc(Cl)cc1)C(C)C [(104)]: 2
- CC(C)C(=O)OC(OC(=O)NC[C@H](CC(=O)[O-])c1ccc(Cl)cc1)C1CCCCC1.[Na+] (some centres unmarked) [(84)]: 4
- CCCC(=O)OC(OC(=O)NC[C@H](CC(=O)[O-])c1ccc(Cl)cc1)C(C)C.[Na+] (some centres unmarked) [(27)]: 12

For CC(C)C(=O)O[C@H](OC(=O)NC[C@H](CC(=O)[O-])c1ccc(Cl)cc1)C(C)C.[Na+] [(100)] , what is its reported % of Baclofen Released after 60 min?
3

Here is the next compound: CC(C)(C)C(=O)OCOC(=O)NC[C@H](CC(=O)[O-])c1ccc(Cl)cc1.[Na+] [(20)]
9

Here is the next compound: CC(OC(=O)NC[C@H](CC(=O)[O-])c1ccc(Cl)cc1)OC(=O)C(C)C.[Na+] (some centres unmarked) [(33)]
4

###

Each entry below carries its reported % of Prodrug Remaining after 60 min.
test system: pancreatin; assay: Pancreatin stability; format: in vitro ADME, porcine; conditions: 1% (w/v) pancreatin, 5 μM, pH 7.5, 37° C.
Numbers only; they are read as %.

Some entries whose results are on file:
* CCCC(=O)OCOC(=O)NC[C@H](CC(=O)[O-])c1ccc(Cl)cc1.[Na+] | 1
* CCCC(=O)O[C@H](CCC)OC(=O)NC[C@H](CC(=O)[O-])c1ccc(Cl)cc1.[Na+] | 4
* CCCC(=O)O[C@H](OC(=O)NC[C@H](CC(=O)[O-])c1ccc(Cl)cc1)C(C)C.[Na+] | 9

// moving on: another record for % of Prodrug Remaining after 60 min
For O=C([O-])C[C@@H](CNC(=O)OCOC(=O)CCc1ccccc1)c1ccc(Cl)cc1.[Na+] , what is its reported % of Prodrug Remaining after 60 min?
1
